Recorded values, source PubChem BioAssay (NCI).

Overview of reported TGI across a group of compounds:
System: HCC-2998 colon
assay_method_text: NCI tumour cell line growth inhibition, 48 h
metric: TGI

                                    compound  metric  observed_result
 0  Nc1ccc(C(=O)NN2C(=O)[C@H](Cl)C2c2ccc(Cl)cc2)cc1 (stereo partly specified)     TGI          3.01 µM
 1        CCOC(=O)c1cn2c(n1)sc1cc(C)c(C)cc12     TGI         > 100 µM
 2  CC1(C)C2CCC13C(=O)C1OC3(C2)C2C(=O)N(c3ccccc3)C(=O)C12 (stereo unspecified)     TGI         > 100 µM
 3  O=C1C(=Cc2cccs2)C(=O)N(CCc2ccccc2)S(=O)(=O)N1CCc1ccccc1     TGI          > 50 µM
 4  CCOC(=O)/C=C1/SC(N2CCCCC2)C(=O)N1CC (stereo unspecified)     TGI         > 100 µM
 5  CCOC(=O)c1nnn(-c2no[n+]([O-])c2-c2ccc(OC)cc2)c1COc1cccc2cccnc12     TGI          9.98 µM
 6  S=C(Nc1ccccc1)Nc1ccccc1SC(/C=C/NNC1=NC(c2ccccc2)C(c2ccccc2)=NN1)c1ccccc1 (stereo unspecified)     TGI         > 100 µM
 7  COc1cccc2c(Nc3ccc(S(=O)(=O)N=C(N)N)cc3)c3ccc([N+](=O)[O-])cc3nc12     TGI          87.2 µM
 8       Cc1nc2sccn2c1C(=O)N/N=C1\SCC(=O)N1C     TGI         > 100 µM
 9  CC1=C(C(=O)N[C@@H](CC(C)C)C(=O)O)N2C(=O)[C@@H](NC(=O)[C@@H](N)Cc3ccccc3)[C@H]2SC1     TGI         > 100 µM
10  Oc1cccc(-c2nc(-c3n[nH]c(=S)n3-c3ccccc3)cc3c2[nH]c2ccccc23)c1     TGI          4.53 µM

###

Tested on: UACC-62 melanoma
assay_method_text: NCI tumour cell line growth inhibition, 48 h
metric: TGI (µM)

>>> print(df.to_string())
                                    molecule  unit_symbol  censoring_qualifier  observed_result
 0  CCc1cccc(CC)c1NC(=O)C(C#N)C1=C(Cl)C(=O)c2ccccc2C1=O (stereo not drawn)           µM                    =             31.7
 1  CC[C@@]1(O)C(=O)OCc2c1cc1n(c2=O)Cc2c-1nc1ccccc1c2Cl           µM                    =            0.107
 2  COc1ccc2nc3cccc([N+](=O)[O-])c3c(NCCNCCO)c2c1           µM                    =           0.0397
 3  CC1=C2C(=O)c3ccccc3C(=O)[C@H]2C[C@@H](N2CCCC2=O)O1           µM                    >              100
 4                O=C(Nc1cccc(Cl)c1)Nc1nccs1           µM                    =             57.4
 5                            OCCCNCc1ccncc1           µM                    >              100
 6  O=CC1=C(C(=O)OC(c2ccccc2)c2ccccc2)N2C(=O)[C@@H](NC(=O)Cc3cccs3)[C@H]2SC1           µM                    >              100
 7  COC(=O)C1CCC2(C)[C@H](CCC3O[C@]32C)[C@@]1(C)CC(=O)c1ccoc1 (stereo partly drawn)           µM                    >              100
 8  CC(C)OC(=O)c1cc(NS(=O)(=O)c2ccc3ccccc3c2)cc(C(=O)OC(C)C)c1           µM                    =             48.6
 9  c1ccc2c3ccn4ccc5c6ccccc6[nH]c5c4c-3nc2c1           µM                    =             3.51
10          C(=C1c2ccccc2-c2ccccc21)c1ccncc1           µM                    =             18.6
11  Cc1nc(N)nn1C1OCC(O)C(O)C1O (stereo not drawn)           µM                    >              100
12  O=[N+]([O-])c1ccc2c(c1)C(=NO)c1cc([N+](=O)[O-])ccc1-2           µM                    >              100
